target: T1, cMetECDHis (human, UniProt P08581 25-932, limits assumed, biotinylated in the cross-block ELISA of Example 17); assay: cross-block ELISA; competitor 022
T1 construct: Expressed in HEK-293F cells; also called soluble cMetECDHis; biotinylated cMetECDHis
Assay endpoint: residual binding, % of no competitor (%)

1. anti-c-Met HuMab 005 (IgG1) (antibody, V domains shown, also called TH1016-005; PC1016-005) VH: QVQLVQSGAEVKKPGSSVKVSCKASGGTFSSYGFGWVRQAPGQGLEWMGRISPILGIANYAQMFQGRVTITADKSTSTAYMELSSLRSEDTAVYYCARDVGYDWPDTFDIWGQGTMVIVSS VL: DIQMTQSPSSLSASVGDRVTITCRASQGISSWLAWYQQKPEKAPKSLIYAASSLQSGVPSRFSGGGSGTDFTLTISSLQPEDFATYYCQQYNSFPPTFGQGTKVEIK ... 4.9
2. IgG1-1016-069 (antibody, V domains shown, also called clone 069; TH1016-069) VH: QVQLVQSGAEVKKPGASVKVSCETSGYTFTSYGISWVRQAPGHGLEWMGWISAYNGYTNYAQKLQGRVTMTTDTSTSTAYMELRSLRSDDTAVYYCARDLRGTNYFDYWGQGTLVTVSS VL: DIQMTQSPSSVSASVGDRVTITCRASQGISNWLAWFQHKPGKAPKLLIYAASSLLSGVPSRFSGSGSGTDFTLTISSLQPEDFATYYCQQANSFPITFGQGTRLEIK ... 97.8
3. IgG1-1016-058 (antibody, V domains shown, also called IgG1-058; TH1016-058) VH: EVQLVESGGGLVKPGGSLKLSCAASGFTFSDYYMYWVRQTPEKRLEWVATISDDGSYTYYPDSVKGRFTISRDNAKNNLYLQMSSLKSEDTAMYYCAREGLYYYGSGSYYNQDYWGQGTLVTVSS VL: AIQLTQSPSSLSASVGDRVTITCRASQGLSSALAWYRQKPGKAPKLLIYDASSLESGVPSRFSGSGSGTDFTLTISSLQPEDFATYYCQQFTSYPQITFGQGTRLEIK ... 6.8
